test: self-splicing fitness, log relative to wild type (ln ratio); higher = more splicing; Tetrahymena group I intron in knt gene, E. coli kanamycin selection, DiMSum; sequences stand for … in CUCUCU…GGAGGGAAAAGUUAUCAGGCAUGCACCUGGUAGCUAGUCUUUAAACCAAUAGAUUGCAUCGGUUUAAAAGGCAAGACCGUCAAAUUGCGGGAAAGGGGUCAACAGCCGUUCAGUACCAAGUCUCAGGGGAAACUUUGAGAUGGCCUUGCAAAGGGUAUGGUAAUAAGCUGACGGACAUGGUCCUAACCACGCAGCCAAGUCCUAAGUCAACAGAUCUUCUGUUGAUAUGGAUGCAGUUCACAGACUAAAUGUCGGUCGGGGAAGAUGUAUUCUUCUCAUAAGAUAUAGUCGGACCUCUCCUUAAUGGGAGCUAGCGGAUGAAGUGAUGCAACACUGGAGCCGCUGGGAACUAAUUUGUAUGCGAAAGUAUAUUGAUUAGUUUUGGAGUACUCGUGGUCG; conditions: 37 °C;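 note: selection with 25 µg/mL kanamycin versus none on LB agar overnight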
Label yes when self-splicing fitness (ln) is at or above -2; anything below gets no.

Example entries and their recorded answers appear below.
GAUUAGCAAUAUUACGUCGG; no
AAAGAGCAAUAUUACGGUGC; yes
CUCUAGCAAUAUUACGCCCU; no

[Q] State whether the measured self-splicing fitness (ln) reaches -2, counting equality as reaching it, for AAUGAGCAAUAUUACGCAGC
[A] no

[Q] State whether the measured self-splicing fitness (ln) reaches -2, counting equality as reaching it, for UGGCAGCAAUAUUACGCAUU
[A] yes

[Q] State whether the measured self-splicing fitness (ln) reaches -2, counting equality as reaching it, for CGGAAGCAAUAUUACGGCUC
[A] no

[Q] State whether the measured self-splicing fitness (ln) reaches -2, counting equality as reaching it, for ACUGAGCAAUAUUACGCGAC
[A] yes

[Q] State whether the measured self-splicing fitness (ln) reaches -2, counting equality as reaching it, for UAGCAGCAAUAUUACGAAAU
[A] yes

[Q] State whether the measured self-splicing fitness (ln) reaches -2, counting equality as reaching it, for AAACAGCAAUAUUACGUUGG
[A] no

* * *

test: self-splicing fitness, log relative to wild type (ln ratio); higher = more splicing; Tetrahymena group I intron in knt gene, E. coli kanamycin selection, DiMSum; sequences stand for … in CUCUCU…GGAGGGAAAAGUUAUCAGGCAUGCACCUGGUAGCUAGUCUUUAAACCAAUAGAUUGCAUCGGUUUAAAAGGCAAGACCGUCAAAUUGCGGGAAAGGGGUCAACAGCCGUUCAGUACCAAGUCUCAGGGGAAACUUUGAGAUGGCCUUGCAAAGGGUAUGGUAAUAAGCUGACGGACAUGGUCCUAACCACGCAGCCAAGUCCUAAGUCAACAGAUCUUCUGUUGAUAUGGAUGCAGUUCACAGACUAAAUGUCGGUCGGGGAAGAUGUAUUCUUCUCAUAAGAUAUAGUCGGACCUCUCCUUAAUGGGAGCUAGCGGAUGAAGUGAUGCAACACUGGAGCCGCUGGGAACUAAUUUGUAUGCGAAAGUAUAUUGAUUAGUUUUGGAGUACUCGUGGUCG; settings: 30 °C
Overview of recorded self-splicing fitness (ln) for various sequences
Respond numerically, and do not add a unit to the figure.

GUUAAGCAAUAUUACGUUGG; -2.45
CGCAAGCAAUAUUACGACAC; -2.89
AUAUAGCAAUAUUACGCACU; -0.015
AAUCAGCAAUAUUACGUAGU; -0.0974
UGCCAGCAAUAUUACGAACA; -0.458
AUAUAGCAAUAUUACGAUUU; -0.24
UUCAAGCAAUAUUACGCGAC; -2.61
CCACAGCAAUAUUACGUGAC; -3.38

[Q] Request the reported self-splicing fitness (ln) associated with ACUAAGCAAUAUUACGGAGU
[A] -3.72

[Q] Request the reported self-splicing fitness (ln) associated with UGAAAGCAAUAUUACGGAGC
[A] -3.81

[Q] Request the reported self-splicing fitness (ln) associated with GCGCAGCAAUAUUACGGGGA
[A] -2.23

[Q] Request the reported self-splicing fitness (ln) associated with AACGAGCAAUAUUACGUCGU
[A] -2.5

[Q] Request the reported self-splicing fitness (ln) associated with AUCCAGCAAUAUUACGUGGC
[A] -3.98

[Q] Request the reported self-splicing fitness (ln) associated with AAACAGCAAUAUUACGGAAG
[A] -3.7

[Q] Request the reported self-splicing fitness (ln) associated with AAACAGCAAUAUUACGGUUG
[A] -1.99

[Q] Request the reported self-splicing fitness (ln) associated with GGAUAGCAAUAUUACGAUCG
[A] -0.534

[Q] Request the reported self-splicing fitness (ln) associated with CAGUAGCAAUAUUACGAUAG
[A] 0.00229

[Q] Request the reported self-splicing fitness (ln) associated with GCUUAGCAAUAUUACGAGCG
[A] -2.44

[Q] Request the reported self-splicing fitness (ln) associated with GUACAGCAAUAUUACGCAAA
[A] -0.875

[Q] Request the reported self-splicing fitness (ln) associated with UGUCAGCAAUAUUACGCGCG
[A] -0.708

[Q] Request the reported self-splicing fitness (ln) associated with CCGAAGCAAUAUUACGCGAG
[A] -2.65

[Q] Request the reported self-splicing fitness (ln) associated with CCGUAGCAAUAUUACGGCGU
[A] -2.57

* * *

Overview of recorded self-splicing fitness (ln) for various sequences
assay: self-splicing fitness, log relative to wild type (ln ratio); higher = more splicing; Tetrahymena group I intron in knt gene, E. coli kanamycin selection, DiMSum; sequences stand for … in CUCUCU…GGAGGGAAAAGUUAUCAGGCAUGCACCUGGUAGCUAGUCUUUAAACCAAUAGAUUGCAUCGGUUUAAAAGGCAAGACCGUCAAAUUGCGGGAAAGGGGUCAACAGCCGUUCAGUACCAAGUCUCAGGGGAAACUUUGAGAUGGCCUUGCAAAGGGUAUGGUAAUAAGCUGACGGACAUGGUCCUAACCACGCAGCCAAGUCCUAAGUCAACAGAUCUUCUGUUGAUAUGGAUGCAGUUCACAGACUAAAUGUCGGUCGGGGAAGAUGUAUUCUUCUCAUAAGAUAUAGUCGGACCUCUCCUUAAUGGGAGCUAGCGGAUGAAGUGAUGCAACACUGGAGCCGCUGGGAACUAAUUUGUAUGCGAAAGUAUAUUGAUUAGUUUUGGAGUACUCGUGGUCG; settings: 30 °C
Respond numerically, and do not add a unit to the figure.

Please review the entries below; each comes with its answer.
UUGGAGCAAUAUUACGACUG; -0.79
CAUUAGCAAUAUUACGGCAC; -4.19
AGUCAGCAAUAUUACGAGAU; -2.61
GUCAAGCAAUAUUACGCUCC; -1.87
GGGGAGCAAUAUUACGUUAU; -3.58

[Q] Request the reported self-splicing fitness (ln) associated with GACCAGCAAUAUUACGGCCA
[A] -0.323

[Q] Request the reported self-splicing fitness (ln) associated with UACAAGCAAUAUUACGAGUG
[A] -1.35

[Q] Request the reported self-splicing fitness (ln) associated with AGUCAGCAAUAUUACGGAAA
[A] -2.78

* * *

assay: self-splicing fitness, log relative to wild type (ln ratio); higher = more splicing; Tetrahymena group I intron in knt gene, E. coli kanamycin selection, DiMSum; sequences stand for … in CUCUCU…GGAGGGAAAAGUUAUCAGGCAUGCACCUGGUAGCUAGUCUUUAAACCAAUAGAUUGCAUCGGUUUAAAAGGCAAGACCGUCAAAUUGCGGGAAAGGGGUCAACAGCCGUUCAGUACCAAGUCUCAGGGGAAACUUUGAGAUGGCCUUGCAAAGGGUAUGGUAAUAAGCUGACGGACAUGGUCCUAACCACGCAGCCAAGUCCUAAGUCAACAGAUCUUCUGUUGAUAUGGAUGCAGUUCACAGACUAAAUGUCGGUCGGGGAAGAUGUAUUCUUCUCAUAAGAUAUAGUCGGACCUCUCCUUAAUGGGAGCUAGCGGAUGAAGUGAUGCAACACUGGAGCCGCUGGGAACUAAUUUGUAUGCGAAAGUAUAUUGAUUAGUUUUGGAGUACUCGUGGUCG; conditions: 30 °C
The recorded self-splicing fitness (ln) of each item maps onto one of these classes: lower band: < -3; central band: ≥ -3 and < -2; upper band: ≥ -2

Example entries and their recorded answers appear below.
CGCGAGCAAUAUUACGAGGG; lower band
UAGGAGCAAUAUUACGAAGC; lower band
UAAUAGCAAUAUUACGCAUA; upper band
CGAAAGCAAUAUUACGUUCG; lower band
UGGCAGCAAUAUUACGCAAA; upper band
GCCCAGCAAUAUUACGUGGG; lower band
CAACAGCAAUAUUACGGAAG; upper band
UCUCAGCAAUAUUACGGCUU; lower band
UCACAGCAAUAUUACGGGAC; central band
AAUCAGCAAUAUUACGUUCU; upper band

[Q] Kindly state the category for this sequence: CGUAAGCAAUAUUACGUAAC
[A] lower band

[Q] Kindly state the category for this sequence: AAUCAGCAAUAUUACGUAAA
[A] upper band

[Q] Kindly state the category for this sequence: UAAUAGCAAUAUUACGUCGG
[A] central band

[Q] Kindly state the category for this sequence: CCUCAGCAAUAUUACGUAUA
[A] lower band

[Q] Kindly state the category for this sequence: UACAAGCAAUAUUACGGUUG
[A] central band

[Q] Kindly state the category for this sequence: CUCUAGCAAUAUUACGAGCA
[A] lower band

[Q] Kindly state the category for this sequence: UACCAGCAAUAUUACGGAAC
[A] lower band

[Q] Kindly state the category for this sequence: CCUCAGCAAUAUUACGAGAG
[A] central band

[Q] Kindly state the category for this sequence: AAGUAGCAAUAUUACGCGUA
[A] central band

[Q] Kindly state the category for this sequence: AGGGAGCAAUAUUACGAGUC
[A] central band

[Q] Kindly state the category for this sequence: CGGCAGCAAUAUUACGAAAU
[A] lower band

[Q] Kindly state the category for this sequence: AUAUAGCAAUAUUACGACGC
[A] upper band

[Q] Kindly state the category for this sequence: UUAAAGCAAUAUUACGCUGU
[A] upper band

[Q] Kindly state the category for this sequence: UUACAGCAAUAUUACGAUCG
[A] upper band

[Q] Kindly state the category for this sequence: UGCUAGCAAUAUUACGAUAU
[A] central band

[Q] Kindly state the category for this sequence: GAACAGCAAUAUUACGCUAC
[A] lower band

[Q] Kindly state the category for this sequence: AAAAAGCAAUAUUACGGAUA
[A] central band
